The values you see were collected from PubChem BioAssay (NCI).

System: T-47D breast
Assay: NCI tumour cell line growth inhibition, 48 h
METRIC: TGI (µM)
Answer in µM, number only, no unit symbol.

Item CSC(=NC#N)S/C=C/C(=O)c1ccc(Cl)cc1 has what recorded TGI?
75.1

Try CCOC(=O)/C=C\c1c(Cl)n(-c2ccccc2)c(=O)n(-c2ccccc2)c1=O next.
42.2

Try c1ccc([Si](OCCN2CC2)(c2ccccc2)c2ccccc2)cc1 next.
39.9

Try C=CC(=O)N1C[C@H](COc2nc(Nc3cnn(C)c3)nc3[nH]cc(Cl)c23)[C@@H](OC)C1 next.
17.6

Try COc1cc(-c2csc(NC(=O)Nc3ccc(Cl)c(C(F)(F)F)c3)n2)cc(OC)c1OC next.
4.07
